# ASSAY SUMMARY: Cell viability / cytotoxicity, MTT assay
# CONDITION CONTEXT: mouse, B16 cells
VALUE KIND: IC50
Enter the number, and then the unit.

GET /value?item= C[C@@H]1O[C@@H](Oc2c(-c3cc(O)c(O)c(O)c3)oc3cc(O)cc(O)c3c2=O)[C@H](O)[C@H](O)[C@H]1O [FM2, myricetin-3-O-rhamnoside] &field=IC50 returns 19.3 mg/L

Value source: paper PMC8838631
